The measurements presented in this section are drawn from paper PMC12631437.

IC50 values by entry
Tested on: Plasmodium falciparum 3D7 sensitive strain
experiment_notes: SYBR Green growth assay, asexual blood stages, 3D7 sensitive strain
Type: cell-based
conditions: asexual blood stages, 3D7 sensitive strain, 72 h; read-out: IC50
# output: bare number, implied unit nM

| substance_smiles | reading |
| --- | --- |
| CCCCCCCCCCCc1cc(=O)c2ccccc2[nH]1 | 200 |

Next:
Value wanted: IC50 (Plasmodium falciparum 3D7 sensitive strain) of entry "CCCCCCOc1ccc(-c2cc(=O)c3ccccc3[nH]2)cc1" 500

###

Test system: P. falciparum ATQ_R1 strain
experiment_notes: SYBR Green growth assay, asexual blood stages, ATQ_R1 strain
Assay type: cell-based, Plasmodium falciparum
conditions: Plasmodium falciparum, read-out: IC50 (Figure S1)
metric: pIC50
In plain terms, pIC50 is the concentration in mol/L turned into minus its base-10 logarithm.

Query (compound): CCCCCCCCCCCc1cc(=O)c2ccccc2[nH]1 [compound 1, 2-Undecilquinolin-4(1H)-one] ; field requested: pIC50 6.10

###

pIC50 values by entry
Tested on: P. falciparum V1/S strain
experiment_notes: microbe, parasite or virus in culture
Format: cell-based, Plasmodium falciparum
conditions: Plasmodium falciparum, 72 h
In plain terms, pIC50 is the concentration in mol/L turned into minus its base-10 logarithm.

| molecule | reading |
| --- | --- |
| CCCCCCCCCCCc1cc(=O)c2ccccc2[nH]1 | 6.10 |

Query (molecule): CCN(CC)CCCC(C)Nc1ccnc2cc(Cl)ccc12 (stereo not shown) [Chloroquine, reference compound] ; field requested: pIC50 6.77

Query (molecule): CCc1nc(N)nc(N)c1-c1ccc(Cl)cc1 [Pyrimethamine, reference compound] ; field requested: pIC50 5.22

Query (molecule): O=C1C(O)=C([C@H]2CC[C@H](c3ccc(Cl)cc3)CC2)C(=O)c2ccccc21 [Atovaquone, atovaquone, reference compound] ; field requested: pIC50 8.05

###

System: Huh-7 cells
experiment_notes: Alamar Blue cell confluency (cytotoxicity) in Huh-7 cells
Assay type: cell-based
conditions: 10 μM
metric: Confluency % (%)
# output: bare number, implied unit %

The following compounds have reported results that may help.
| compound | scale_unit | Confluency % |
| --- | --- | --- |
| CCCCCCCc1cc(O)c2ccccc2n1 | % | 147 |
| CCCCCCOc1ccc(-c2cc(=O)c3ccccc3[nH]2)cc1 | % | 102 |
| CCCCCCCCCCCc1cc(=O)c2ccccc2[nH]1 | % | 79 |
| COc1cc(NC(C)CCCN)c2ncccc2c1 (centres unmarked) [Primaquine, reference compound] | % | 104.0 |

Next:
Query (compound): "Cc1ccc(-c2cc(O)c3ccccc3n2)cc1" ; field requested: Confluency % 104

###

Test system: P. falciparum ATQ_R1 strain
experiment_notes: SYBR Green growth assay, asexual blood stages, ATQ_R1 strain
Assay type: cell-based, Plasmodium falciparum
conditions: Plasmodium falciparum, 72 h
metric: IC50

| compound | IC50 |
| --- | --- |
| CCCCCCCCCCCc1cc(=O)c2ccccc2[nH]1 | 0.6 µM |
| CCc1nc(N)nc(N)c1-c1ccc(Cl)cc1 [Pyrimethamine, reference compound] | > 10 µM |

Query (compound): O=C1C(O)=C([C@H]2CC[C@H](c3ccc(Cl)cc3)CC2)C(=O)c2ccccc21 [Atovaquone, atovaquone, reference compound] ; field requested: IC50 > 10 µM
